- System: Colo 205 cells
- Test protocol: In vitro cytotoxicity, 72 h treatment
- Format: cell-based
- Condition context: Homo sapiens, COLO 205, 72 h
Observable: pIC50
Scale note: pIC50 = -log10(concentration in M).

Noted for Nc1ccn([C@@H]2O[C@H](CO)[C@@H](O)C2(F)F)c(=O)n1 [GEM, gemcitabine] : its pIC50 reads 7.33

All figures here come from paper PMC6178977.
